Record: pKi reported on Carbonic anhydrase 12 (Homo sapiens, UniProt O43570).
Sequence (O43570 whole entry): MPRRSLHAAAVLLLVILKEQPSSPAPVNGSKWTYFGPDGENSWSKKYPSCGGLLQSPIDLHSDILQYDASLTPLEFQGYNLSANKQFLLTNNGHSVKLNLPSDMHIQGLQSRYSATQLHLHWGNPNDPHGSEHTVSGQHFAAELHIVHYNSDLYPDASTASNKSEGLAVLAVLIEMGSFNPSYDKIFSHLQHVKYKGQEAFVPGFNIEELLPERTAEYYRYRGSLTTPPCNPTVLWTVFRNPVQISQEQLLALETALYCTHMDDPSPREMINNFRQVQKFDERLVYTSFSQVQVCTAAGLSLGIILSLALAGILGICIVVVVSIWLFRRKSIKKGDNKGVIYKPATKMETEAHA
When answering, recall that pKi equals minus log10 of the concentration in mol/L, and write that number alone.

INSERT INTO assay_data (molecule, endpoint_result) VALUES
  ('O=c1ccc2cc(O)ccc2o1 [6-HYDROXYCOUMARIN]', 6.17),
  ('O=c1cc(O)c2ccccc2o1 [4-HYDROXYCOUMARINS]', 5.20);

Now look at this entry.
[Q] Reported pKi, molecule `C#CCCCOc1ccc2ccc(=O)oc2c1` : ____
[A] 6.43

====

Record: Ki reported on Carbonic anhydrase 1 (Homo sapiens, UniProt P00915).
Sequence (P00915 whole entry): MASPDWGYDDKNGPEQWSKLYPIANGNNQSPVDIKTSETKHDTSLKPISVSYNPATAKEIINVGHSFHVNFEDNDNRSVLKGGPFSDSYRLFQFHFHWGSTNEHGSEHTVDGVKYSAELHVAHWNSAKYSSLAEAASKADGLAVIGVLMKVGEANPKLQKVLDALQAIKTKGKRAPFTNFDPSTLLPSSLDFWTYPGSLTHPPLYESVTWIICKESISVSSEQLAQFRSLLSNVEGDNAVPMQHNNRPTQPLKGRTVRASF

INSERT INTO assay_data (compound, endpoint_result) VALUES
  ('O=c1ccc2cc(O)ccc2o1 [6-HYDROXYCOUMARIN]', '> 100 µM'),
  ('C#CCCCOc1ccc2ccc(=S)oc2c1', '> 200 µM'),
  ('C#CCCCOc1ccc2ccc(=O)oc2c1', '124 µM');

Now look at this entry.
[Q] API: value(readout= Ki, system= Carbonic anhydrase 1 (Homo sapiens, UniProt P00915), query= O=c1cc(O)c2ccccc2o1 [4-HYDROXYCOUMARINS] )
[A] 95 µM

====

Record: pKi reported on Carbonic anhydrase 9 (Homo sapiens, UniProt Q16790).
When answering, recall that pKi equals minus log10 of the concentration in mol/L, and write that number alone.

// below: answered molecules
INSERT INTO results (molecule, system_under_test, measured_property, endpoint_result) VALUES
  ('O=c1ccc2ccc(OCc3cn(-c4ccccc4)nn3)cc2o1', 'Carbonic anhydrase 9 (Homo sapiens, UniProt Q16790)', 'pKi', 8.10),
  ('O=c1cc(O)c2ccccc2o1 [4-HYDROXYCOUMARINS]', 'Carbonic anhydrase 9 (Homo sapiens, UniProt Q16790)', 'pKi', 6.39);

Now look at this entry.
[Q] API: value(readout= pKi, system= Carbonic anhydrase 9 (Homo sapiens, UniProt Q16790), query= `C#CCCCOc1ccc2ccc(=S)oc2c1` )
[A] 6.66
